Reference source: the kinase profiling compilation of Christmann-Franck et al. (2016)

In this section, each of the molecules is paired with its reported residual activity.
# SYSTEM: UniProtKB Q9UEW8
# ASSAY: radiometric filter-binding kinase assay, Kinase HotSpot
# STATED_CONDITIONS: compound 0.5 µM; ATP 10 µM
Report only the number, with the unit % understood.

Study these solved cases before continuing.
>>> measured_value("O=C1NC(=O)c2c1c1c3ccccc3[nH]c1c1[nH]c3cc(Br)ccc3c21")
90.7
>>> measured_value("N/C(=N\\N=C/c1ccc(-c2cccc([N+](=O)[O-])c2)o1)N[N+](=O)[O-]")
91.8
>>> measured_value("COc1cc2ncnc(Nc3ccc(O)c(Br)c3)c2cc1OC")
87.4

Could you share which residual activity value was measured for FC(F)(F)c1ccc(/C=C/c2nc(COc3ccc(CCCCn4ccnn4)cc3)co2)cc1 ?
88.3

Look up residual activity for this molecule: O=C1NC(=O)c2cc(Nc3ccc(F)cc3)c(Nc3ccc(F)cc3)cc21
89.2

* * *

Reported residual activity is given for each of the following molecules.
# SYSTEM: NEK1 (human)
# ASSAY: radiometric filter-binding kinase assay, Kinase HotSpot
# STATED_CONDITIONS: compound 0.5 µM; ATP 10 µM
Give the value, in units of %, as a plain number.

Example entries and their recorded answers appear below.
>>> measured_value("Cc1cc(Nc2nc(-c3ccccc3)nc3ccccc23)n[nH]1")
93
>>> measured_value("N#C/C(=C1/Nc2ccccc2S1)c1ccnc(NCCc2cccnc2)n1")
70
>>> measured_value("O=c1[nH]c2ccccc2n1C1CCN(Cc2ccc(-c3nc4cc5[nH]cnc5cc4nc3-c3ccccc3)cc2)CC1")
101

Item under review: N/C(=N\N=C/c1ccc(-c2cccc([N+](=O)[O-])c2)o1)N[N+](=O)[O-] . Reported residual activity?
97.7

Which residual activity value belongs to O=C(O)c1ccc2c3c1cccc3c(=O)n1c3ccccc3nc21 ?
87.8

* * *

residual activity values by entry
# SYSTEM: PRKACA (human)
# ASSAY: radiometric filter-binding kinase assay, Kinase HotSpot
# STATED_CONDITIONS: compound 0.5 µM; ATP 10 µM
I only need the number, in %, no unit after it.

>>> measured_value("O=c1c2ccccc2[nH]c(=S)n1CCN1CCC(=C(c2ccc(F)cc2)c2ccc(F)cc2)CC1")
101

Any idea what residual activity was measured for CCc1nc(-c2ccc(OC)cc2)[nH]c1-c1ccncc1 ?
100

Param item = Cc1cc(Nc2nc(-c3ccccc3)nc3ccccc23)n[nH]1 ; retrieve measured residual activity.
97.2

Consider the compound O=c1c(-c2ccc(F)cc2)c(-c2ccncc2)[nH]n1-c1ccc(Cl)cc1 and give its measured residual activity.
90.7

GET /values?readout=residual activity&item= CCOc1cc2ncnc(Nc3cccc(Br)c3)c2cc1OCC
98.9

Give its residual activity value. Item: COc1cc2ncnc(Nc3ccc(O)c(Br)c3)c2cc1OC
97.7

For the compound N#C/C(=C1/Nc2ccccc2S1)c1ccnc(NCCc2cccnc2)n1 , what residual activity is on record?
103

Requested field: residual activity. Item: O=C1NC(=O)c2cc(Nc3ccc(F)cc3)c(Nc3ccc(F)cc3)cc21
94.5

* * *

# residual activity annotations
# SYSTEM: MAPK3 (human)
# ASSAY: radiometric filter-binding kinase assay, Kinase HotSpot
# STATED_CONDITIONS: compound 0.5 µM; ATP 10 µM
Supply the numeric figure in %, leaving out any unit text.

>>> measured_value("O=C(c1ccccc1)c1ccc(N2CCOCC2)cc1O")
102

Please report the recorded residual activity for N#CCCc1ccc2c(c1)-c1[nH]c3ccc([N+](=O)[O-])cc3c1CC(=O)N2 .
95.1

Entry COc1cccc(-c2cc(=O)c3ccccc3o2)c1N : reported residual activity = ?
102

Looking for the measured residual activity of Nc1ncnc2c1cnn2-c1ccccc1 , can you help?
90.1

Value lookup for residual activity; key = CCOc1cc2ncnc(Nc3cccc(Br)c3)c2cc1OCC
113

Sample CCc1nc(-c2ccc(OC)cc2)[nH]c1-c1ccncc1 — what was its residual activity?
99.9

What does the data say about its residual activity? Entry: COc1cc2c(Nc3ccc(Br)cc3F)ncnc2cc1OCC1CCN(C)CC1
102

What residual activity value was documented for this compound, O=c1[nH]c2ccccc2n1C1CCN(Cc2ccc(-c3nc4cc5[nH]cnc5cc4nc3-c3ccccc3)cc2)CC1 ?
118
